assay: MELAS cybrid and Rieske KO viability enhancers – cell-based, MELAS cybrids, Rieske KO mouse fibroblasts, CellTiter-Glo, primary screen (AID 1508586); details: MELAS cybrid survival, low glucose, CellTiter-Glo 48 h; stronger effect = higher value;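 note: test concentration not given here; z relative to plate mean and SD of compound and empty wells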
Quick reference for z-score among some compounds

# Compound, z-score
measured = [
    ("NC(=O)c1cncc(Br)c1", 0.375),
    ("CCCCCOC(=O)Nc1nc(=O)n(C2OC(C)C(O)C2O)cc1F (stereo not given)", -0.294),
    ("COc1ccc(-c2oc3ncnc(NCCO)c3c2-c2ccc(OC)cc2)cc1", 1.03),
    ("CCOC1O[C@H]([C@@H](COCc2ccccc2)OCc2ccccc2)[C@H](OCc2ccccc2)[C@H]1O (stereo not given in full)", -0.366),
    ("COc1cc(C2c3cc4c(cc3C(O[C@@H]3O[C@@H]5COC(C)O[C@H]5C(O)C3O)[C@H]3COC(=O)[C@H]23)OCO4)cc(OC)c1O (stereo not given in full)", -0.7),
    ("COC(=O)CN1CCN(c2ncnc3sccc23)C(C)C1=O (stereo not given)", 0.221),
    ("Cc1ccc(-c2cc(C(=O)N3CCC[C@H]3CO)cc(S(=O)(=O)N3CCOCC3)c2)s1", -0.348),
    ("O=C1N[C@H](Cc2ccc(O)cc2)C(=O)N2CCN(C(=O)c3cccc4ccccc34)C[C@H]12", 0.285),
    ("COc1ccc(N2CCN(c3ncnc4sccc34)C(C)C2=O)cc1 (stereo not given)", -0.528),
    ("CCCn1ncc(NC(=O)Cn2cc(C)c(-c3cccc(Cl)c3)n2)n1", -0.0413),
]

---

assay: MELAS cybrid and Rieske KO viability enhancers – cell-based, MELAS cybrids, Rieske KO mouse fibroblasts, CellTiter-Glo, primary screen (AID 1508586); conditions: Rieske KO mouse fibroblast survival, low glucose, CellTiter-Glo 72 h;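 note: test concentration not given here; z relative to plate mean and SD of compound and empty wells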

# Compound, z-score
data = [
    ("CC(C)(C)Nc1nc(N)c(C(=O)c2ccccc2)s1", 0.287),
    ("COc1cccc(Nc2nccc(-c3cnn4ncccc34)n2)c1", 1.18),
    ("COC1C[C@H]2CCC(C)[C@@](O)(O2)C(=O)C(=O)N2CCCC[C@H]2C(=O)OC(C(C)CC2CCC(OP(C)(C)=O)C(OC)C2)CC(=O)C(C)C=C(C)C(O)C(OC)C(=O)C(C)CC(C)C=CC=CC=C1C (stereo partly specified)", 1.92),
    ("CCC1OC(=O)C(C)C(OC2C[C@@](C)(OC)C(O)C(C)O2)C(C)C(OC2OC(C)CC(N(C)C)C2O)[C@](C)(O)CC(C)C(=NOCOCCOC)C(C)C(O)[C@]1(C)O (stereo partly specified)", 0.815),
    ("C[C@@H](O)[C@@H]1NC(=O)[C@@H]2C[C@H](NCc3cc4ccccc4s3)CN2C1=O", -0.73),
    ("COc1ccc(-c2ccc3c(N4CCOCC4C)nc(N4CCOCC4C)nc3n2)cc1CO (stereo unspecified)", -3.07),
    ("CC(CCC(=O)O)[C@@H]1CC[C@H]2[C@@H]3C(O)C[C@@H]4CC(O)CC[C@]4(C)[C@@H]3CC[C@]12C (stereo partly specified)", 0.0686),
    ("CC(C)Oc1ccc(C(=O)NC(CNC(=O)CN(C)C)Cc2ccc(-c3cn4cccc(C(C)O)c4n3)cc2)cc1Cl (stereo unspecified)", -2.78),
    ("CC(=O)[C@H]1CC[C@H]2[C@@H]3C=CC4=CC(=O)CC[C@@]4(C)[C@H]3CC[C@]12C", -0.212),
    ("CN(C)c1ncc(CN2CCc3c(cc(Cc4ccccc4)c(=O)n3Cc3ccc(F)cc3)C2)s1", 0.0943),
    ("CCCn1cc(-c2ccnc(NC3CCN(Cc4cccnc4)CC3)n2)c(C)n1", 0.672),
    ("Cc1ccc(NCCCc2ccccc2)c(N)c1", 0.263),
    ("Cc1ccc(-c2c(-c3nn(C)c4ncnc(N5CCC(N6CCCCC6)C5)c34)cnn2C)cc1 (stereo unspecified)", -0.0628),
    ("C=CCn1nc(C(=O)N2CCCCCC2)c2c1CCC(NCc1cc(-c3ccccc3)on1)C2 (stereo unspecified)", 0.236),
    ("Nc1nc(-c2ccc(O)cc2)cs1", 0.17),
    ("C[C@@H]1C[C@H]2[C@@H]3C[C@H](F)C4=CC(=O)C=C[C@]4(C)[C@@]3(Cl)[C@@H](O)C[C@]2(C)[C@H]1C(=O)COC(=O)C(C)(C)C", -0.15),
    ("C=C[C@@]1(C)CC(OC(=O)CSC2C[C@H]3CC[C@@H](C2)N3C)[C@]2(C)C(C)CC[C@]3(CCC(=O)[C@H]32)C(C)C1O (stereo partly specified)", 5.36),
    ("COc1cc(Cn2cnc3nccnc3c2=O)cc(OC)c1", -0.582),
    ("NC(=O)c1sc(-n2cnc3ccccc32)cc1OCc1ccccc1Br", -0.437),
    ("COC(=O)c1c(NC(=O)CCc2ccccc2)c2cc(NC(C)C(C)(C)O)cnc2n1C (stereo unspecified)", -0.398),
    ("CCCN1CCCCC1C(=O)Nc1c(C)cccc1C (stereo unspecified)", -0.512),
    ("CN(C)CC=CC(=O)Nc1cc2c(Nc3ccc(F)c(Cl)c3)ncnc2cc1OC1CCOC1 (stereo unspecified)", 0.143),
    ("CC(=O)O[C@]1(C(C)=O)CC[C@H]2[C@@H]3C=C(C)C4=CC(=O)CC[C@@H]4[C@H]3CC[C@@]21C", -0.219),
    ("CCCCC(=O)OC1CC[C@H]2[C@@H]3CCc4cc(O)ccc4[C@@H]3CC[C@]12C (stereo partly specified)", -0.141),
    ("COC(=O)CCN1CC(OCc2cccc(OC)c2)CN(C(=O)CCc2cccs2)CC1=O (stereo unspecified)", -0.256),
    ("CCCCS(=O)(=O)CCC(=O)O", -0.71),
    ("Cc1cc(C=Cc2ccc3cc(N(C)C)ccc3[n+]2C)c(C)n1-c1ccccc1", 0.984),
    ("CO[C@@H]1[C@@H](O[C@@H]2O[C@H](C)[C@@H](O[C@H]3C[C@@](C)(OC(=O)CC(C)C)[C@@H](O)[C@H](C)O3)[C@H](N(C)C)[C@H]2O)[C@@H](CC=O)C[C@@H](C)[C@@H](O)/C=C/C=C/C[C@@H](C)OC(=O)C[C@H]1OC(C)=O", -0.227),
    ("O=C(O)C(S)=Cc1c[nH]c2ccc(F)cc12", -0.491),
    ("CCN1C(=O)N(Cc2cccc(OC)c2)C(=O)C12CCN(CC1CC=CCC1)CC2 (stereo unspecified)", -0.854),
    ("Nc1nc(=S)c2ncn([C@@H]3O[C@H](CO)[C@@H](O)[C@H]3O)c2[nH]1", -0.524),
    ("O=C1OC(CN2CCOCC2)CN1N=Cc1ccc([N+](=O)[O-])o1 (stereo unspecified)", -0.452),
    ("CN(C)CCCNC(=O)[C@@H]1C[C@H](CN2CCOCC2)CN(CCc2ccccc2)C1", -0.139),
    ("COc1c(O)cc2c(c1O)[C@@H]1OC(CO)C(O)C(O)[C@H]1OC2=O (stereo partly specified)", 0.533),
    ("CN(C)CCCNC(=O)[C@@H]1C[C@H](CN2CCOCC2)CN(Cc2ccc3ccccc3c2)C1", -0.142),
    ("Cc1c(CN2CC(=O)N(Cc3ccccc3)CC(O)C2)c(=O)n(-c2ccccc2)n1C (stereo unspecified)", -0.72),
]
